Reference for the values: patent US8475804B2

Tested on: Ebola virus
Assay: microbe, parasite or virus in culture
Type: cell-based, Ebolavirus (EBOV)
Conditions: Zaire ebolavirus, Vero, read-out: Max Effect
Where a name gives a salt, the structure may show the parent alone. Residues, ends and D or L forms follow the SMILES beside them. *: point of attachment. Cbz = O=C(OCc1ccccc1)*
ASSAY_METRIC: Emax (%)

[[record]]
molecule = "CCN(CC)CCCC(C)Nc1c2ccc(Cl)cc2nc2ccc(OC)cc12 (centres unmarked) [Quinacrine Dihydrochloride]"
assay_metric = "Emax"
uom = "%"
readout_number = 77.9

[[record]]
molecule = "N[C@H]1CC[C@@H](c2ccc(Cl)c(Cl)c2)c2ccccc21 [Hydrochloride]"
assay_metric = "Emax"
uom = "%"
readout_number = 68.8

[[record]]
molecule = "CN1CCN(CCCN2c3ccccc3Sc3ccc(Cl)cc32)CC1 [Prochlorperazine Edisylate]"
assay_metric = "Emax"
uom = "%"
readout_number = 89

[[record]]
molecule = "COC(=O)Nc1nc2ccc(C(=O)c3cccs3)cc2[nH]1 [Nocodazole]"
assay_metric = "Emax"
uom = "%"
readout_number = 80

[[record]]
molecule = "CN(C)CCCN1c2ccccc2Sc2ccc(C(F)(F)F)cc21 [Triflupromazine Hydrochloride]"
assay_metric = "Emax"
uom = "%"
readout_number = 54.1

[[record]]
molecule = "CCN(CC)CCOc1ccc(/C(=C(\\Cl)c2ccccc2)c2ccccc2)cc1 [Clomiphene Citrate]"
assay_metric = "Emax"
uom = "%"
readout_number = 91.2

[[record]]
molecule = "CC(C)C[C@@H](C=O)NC(=O)[C@H](CC(C)C)NC(=O)[C@H](CC(C)C)NC(=O)OCc1ccccc1 [MG-132] (Cbz-Leu-Leu-Leu-aldehyde)"
assay_metric = "Emax"
uom = "%"
readout_number = 90

[[record]]
molecule = "CN1CCCC(n2nc(Cc3ccc(Cl)cc3)c3ccccc3c2=O)CC1 (centres unmarked) [Azelastine]"
assay_metric = "Emax"
uom = "%"
readout_number = 64.8


---

System: Ebola virus
Assay: microbe, parasite or virus in culture
Type: cell-based, Ebolavirus (EBOV)
Conditions: read-out: IC50
# key: entry, value: IC50
ASSAY_METRIC: IC50 (µM)

[[record]]
molecule = "CSc1ccc2c(c1)N(CCC1CCCCN1C)c1ccccc1S2.Cl (stereo not shown) [Thioridazine Hydrochloride]"
readout_relation = "="
readout_number = 4.3

[[record]]
molecule = "C[C@H]1CCC/C=C/[C@@H]2C[C@H](O)C[C@H]2[C@H](O)/C=C/C(=O)O1"
readout_relation = "<"
readout_number = 1.6

[[record]]
molecule = "CO[C@@H]1[C@H](O)C[C@@H](O[C@@H]2C[C@H](Oc3cc4cc5c(c(O)c4c(O)c3C)C(=O)[C@@H](O[C@H]3C[C@@H](O[C@H]4C[C@@H](O[C@H]6C[C@](C)(O)[C@@H](OC(C)=O)[C@H](C)O6)[C@H](O)[C@@H](C)O4)[C@H](O)[C@@H](C)O3)[C@H]([C@H](OC)C(=O)[C@@H](O)[C@@H](C)O)C5)O[C@H](C)[C@@H]2OC(C)=O)O[C@@H]1C"
readout_relation = "="
readout_number = 0.4

[[record]]
molecule = "O=C(OC[C@H]1O[C@@H](OC(=O)c2cc(O)c(O)c(O)c2)[C@H](OC(=O)c2cc(O)c(O)c(O)c2)[C@@H](OC(=O)c2cc(O)c(O)c(O)c2)[C@@H]1OC(=O)c1cc(O)c(O)c(O)c1)c1cc(O)c(O)c(O)c1"
readout_relation = "="
readout_number = 3.2

